Measured values drawn from patent US5597832A for this set.

# Test System: D-1 receptor
# Test Method Notes: Adenylate cyclase assay (agonist activity, cAMP)
# Type: biochemical, goldfish retina or rat striatum
Structures can show the parent of a compound that is named as a salt.
Property Label: EC50 (nM)
Answer with a number only, understood to be in nM.

Known EC50 results, listed for orientation:
| Compound | Test System | EC50 [nM] |
| --- | --- | --- |
| CCc1cc2c(o1)[C@@H]1c3cc(O)c(O)cc3CC[C@H]1NC2 (relative stereo) [Example 55, hydrochloride] | D-1 receptor | 64 |
| CCCc1cc2c(o1)CN[C@@H]1CCc3cc(O)c(O)cc3[C@@H]21 (relative stereo) [Example 41] | D-1 receptor | 46 |

For the next question, use this compound.
Complete the entry with EC50 for Cc1nc2c(o1)[C@@H]1c3cc(O)c(O)cc3CC[C@H]1NC2 (relative stereo) [Example 51]
65

###

# System: D-1 receptor
# Test Method Notes: Adenylate cyclase assay (agonist activity, cAMP)
# Format: biochemical, goldfish retina or rat striatum
Where a name gives a salt, the structure may show the parent alone.
Please use TRUE for Intrinsic Activity (%) under 80% and FALSE for everything else, ties included.

Check out these entries, answers already filled in.
| Molecule | Test System | Class |
| --- | --- | --- |
| Oc1cc2c(cc1O)[C@H]1c3cc(-c4ccccc4)oc3CN[C@@H]1CC2 (relative stereo) [Example 42, hydrochloride] | D-1 receptor | TRUE |
| CCCc1nc2c(s1)[C@H]1c3cc(O)c(O)cc3CC[C@@H]1NC2 (relative stereo) [Example 27, dihydrobromide] | D-1 receptor | FALSE |
| CCc1cc2c(o1)[C@@H]1c3cc(O)c(O)cc3CC[C@H]1NC2 (relative stereo) [Example 55, hydrochloride] | D-1 receptor | FALSE |
| CCc1cc2c(o1)CN[C@@H]1CCc3cc(O)c(O)cc3[C@@H]21 (relative stereo) [Example 40, hydrochloride] | D-1 receptor | TRUE |
| CCCCCCc1cc2c(s1)CN[C@@H]1CCc3cc(O)c(O)cc3[C@@H]21 (relative stereo) [Example 38, TFA salt] | D-1 receptor | TRUE |

Could you now consider this next molecule?
In the record for CCCc1cc2c(o1)CN[C@@H]1CCc3cc(O)c(O)cc3[C@@H]21 (relative stereo) , is Intrinsic Activity (%) less than 80%?
FALSE

###

# Test System: D-1 receptor
# Test Method Notes: Adenylate cyclase assay (agonist activity, cAMP)
# Assay type: biochemical, goldfish retina or rat striatum
Where a name gives a salt, the structure may show the parent alone.
Property Label: EC50 (nM)
Answer with a number only, understood to be in nM.

| Molecule | Property Label | Unit Symbol | Quantitative Result |
| --- | --- | --- | --- |
| CC(C)c1nc2c(o1)[C@@H]1c3cc(O)c(O)cc3CC[C@H]1NC2 (relative stereo) [Example 50, dihydrobromide] | EC50 | nM | 81 |
| CC(C)c1cc2c(s1)[C@@H]1c3cc(O)c(O)cc3CC[C@H]1NC2 (relative stereo) [Example 34, trifluoroacetate salt] | EC50 | nM | 16 |
| CCCc1nc2c(o1)[C@@H]1c3cc(O)c(O)cc3CC[C@H]1NC2 (relative stereo) [Example 29, dihydrobromide] | EC50 | nM | 28 |
| Oc1cc2c(cc1O)[C@@H]1c3sc(-c4ccccc4)cc3CN[C@H]1CC2 (relative stereo) [Example 19, hydrobromide] | EC50 | nM | 25 |

Complete the entry with EC50 for CCc1cc2c(o1)CN[C@@H]1CCc3cc(O)c(O)cc3[C@@H]21 (relative stereo) [Example 40, hydrochloride]
37

Complete the entry with EC50 for Oc1cc2c(cc1O)[C@H]1c3cc(-c4ccccc4)oc3CN[C@@H]1CC2 (relative stereo) [Example 42, hydrochloride]
78
